Target: T1, recombinant human PAD4 (human, UniProt Q9UM07 1-663)
T1 construct: also called rhPAD4; hPAD4
T1 sequence (Q9UM07 whole entry): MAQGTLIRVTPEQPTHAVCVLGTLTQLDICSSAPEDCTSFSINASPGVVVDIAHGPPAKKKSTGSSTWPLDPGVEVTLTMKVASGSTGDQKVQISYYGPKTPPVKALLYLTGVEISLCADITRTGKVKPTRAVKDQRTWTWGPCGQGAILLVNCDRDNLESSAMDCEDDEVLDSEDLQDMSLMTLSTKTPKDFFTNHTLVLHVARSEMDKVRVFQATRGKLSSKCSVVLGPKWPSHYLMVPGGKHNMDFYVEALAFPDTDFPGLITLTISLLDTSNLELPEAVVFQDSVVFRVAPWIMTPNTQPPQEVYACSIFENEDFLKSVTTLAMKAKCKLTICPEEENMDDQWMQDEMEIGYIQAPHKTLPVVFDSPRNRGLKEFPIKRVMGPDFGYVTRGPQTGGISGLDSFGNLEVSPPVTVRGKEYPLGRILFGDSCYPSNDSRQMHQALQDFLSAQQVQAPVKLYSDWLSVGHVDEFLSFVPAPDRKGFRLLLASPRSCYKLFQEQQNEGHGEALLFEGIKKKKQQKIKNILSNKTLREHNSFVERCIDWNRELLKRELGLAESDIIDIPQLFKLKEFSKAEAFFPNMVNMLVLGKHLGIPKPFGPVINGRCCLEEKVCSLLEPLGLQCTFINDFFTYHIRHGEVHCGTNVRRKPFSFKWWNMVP
Assay: SPR 37 C, captured antibody, PAD4 analyte, 2 mM EDTA
Experimental: For SPR measurements, either an anti-human capture surface or Protein A surface (Cytiva catalog #29127555) was used. Anti-human capture surface was prepared by immobilizing anti-human capture antibody (Cytiva catalog #29234600) onto flow cells of a CM5 or CM4 biosensor following the manufacturer's amine coupling protocol (Cytiva catalog #BR-1006-33). […] The association and dissociation of the antibodies with PAD4 were measured. […]
OBSERVATION_TYPE: kon (M⁻¹ s⁻¹)
# number only, unit M⁻¹ s⁻¹ dropped from output

hz13-2 (antibody, V domains shown, light constant region not tied to this antibody) VH: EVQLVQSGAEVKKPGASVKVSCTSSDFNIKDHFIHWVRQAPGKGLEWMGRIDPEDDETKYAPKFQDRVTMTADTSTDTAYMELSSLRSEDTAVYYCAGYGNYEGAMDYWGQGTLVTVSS VL: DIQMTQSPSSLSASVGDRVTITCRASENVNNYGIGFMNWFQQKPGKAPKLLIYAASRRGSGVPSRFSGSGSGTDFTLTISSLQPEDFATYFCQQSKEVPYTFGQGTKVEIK | 2e+06

Query :: For the binder hz20-2 (antibody, IgG1, V domains shown, also called clone 20-based hz20-2 antibody) VH: QVQLVQSGAEVKKPGASVKVSCKASGYTFTNYGISWVRQAPGQGLEWMGEIYPRSGNTYHNEKFKDRVTMTTDTSTSTAYMELRSLRSDDTAVYYCARSMITTRYWYFDVWGQGTLVTVSS VL: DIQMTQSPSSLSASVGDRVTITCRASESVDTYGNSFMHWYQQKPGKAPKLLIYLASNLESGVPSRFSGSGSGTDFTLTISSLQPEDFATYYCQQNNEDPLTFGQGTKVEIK , what kon is on record?
Result :: 310000

The reported numbers originate from patent US20240132622A1.
